Values were extracted from patent US20240376151A1.

Biological target: RNF31 PUB domain (Homo sapiens, UniProt Q96EP0)
Construct: MBP-TEV (N, cleaved yes); made in house; host or cells: E. coli BL21 (DE3) pLysS
Sequence (Q96EP0 1-179): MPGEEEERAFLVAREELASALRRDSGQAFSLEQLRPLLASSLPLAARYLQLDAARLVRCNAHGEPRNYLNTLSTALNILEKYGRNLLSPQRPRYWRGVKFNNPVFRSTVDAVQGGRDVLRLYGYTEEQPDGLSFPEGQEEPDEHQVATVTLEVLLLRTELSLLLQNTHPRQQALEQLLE
Experiment: Phage Library Screening with NGS, RNF31 PUB domain
Format: binding
Details: clusters C41-C45; BLANK screen, column 1 of 5
# Phage library screen NGS readout, BLANK annotations
attribute measured: Phage library screen NGS readout, BLANK

sequence	attribute measured	recorded value
DPAHDWCLYAAYDCRVY	Phage library screen NGS readout, BLANK	0
DPALDYCLYAAYDCMYA	Phage library screen NGS readout, BLANK	0
DPAIAQCMLAAQVCSTY	Phage library screen NGS readout, BLANK	1
DPAYTLCSWAAMYCDSM	Phage library screen NGS readout, BLANK	0
DPAYDYCLYAAQDCVWW	Phage library screen NGS readout, BLANK	0
DPAYRDCDWAALYCDDF	Phage library screen NGS readout, BLANK	0
DPAEQFCLYAAYDCYSE	Phage library screen NGS readout, BLANK	1
DPAWMDCLYAAYDCQHM	Phage library screen NGS readout, BLANK	1
DPAADDCEWAALYCSFH	Phage library screen NGS readout, BLANK	2
DPAQEACWDAAIMCTYR	Phage library screen NGS readout, BLANK	0
DPAWMQCMYAAWDCNIE	Phage library screen NGS readout, BLANK	0
DPAMQDCQLAALVCTTY	Phage library screen NGS readout, BLANK	0
DPAWQECVIAALVCDTY	Phage library screen NGS readout, BLANK	0
DPAQYQCWNAAMSCSYS	Phage library screen NGS readout, BLANK	1
DPAADQCDIAAFVCSTY	Phage library screen NGS readout, BLANK	0
DPAIQECLLAAATCWTY	Phage library screen NGS readout, BLANK	0
DPAWTQCDWAALYCEDQ	Phage library screen NGS readout, BLANK	0

* * *

Biological target: WWP2^HECT (Homo sapiens, UniProt O00308)
Construct: GST-TEV (N, cleaved yes); made in house; host or cells: Escherichia coli BL21 (DE3)
Sequence (O00308 492-865): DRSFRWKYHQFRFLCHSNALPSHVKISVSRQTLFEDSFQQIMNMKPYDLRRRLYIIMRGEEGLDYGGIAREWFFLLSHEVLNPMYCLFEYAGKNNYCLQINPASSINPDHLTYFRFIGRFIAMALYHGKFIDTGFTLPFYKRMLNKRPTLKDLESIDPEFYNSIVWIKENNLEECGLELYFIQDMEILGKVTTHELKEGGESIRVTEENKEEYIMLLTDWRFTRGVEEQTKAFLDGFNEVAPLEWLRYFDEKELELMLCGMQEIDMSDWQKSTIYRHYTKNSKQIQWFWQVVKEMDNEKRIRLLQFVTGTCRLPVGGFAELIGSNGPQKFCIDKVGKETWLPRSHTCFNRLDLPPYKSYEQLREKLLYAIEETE
Experiment: Naive Library Presenter Screening (phage, NGS), WWP2^HECT
Assay type: binding
Conditions: WWP2 target concentration 10 nM
Numbered stars: 1 amine (or outer) side, 2 acyl side, 3 side chain; on linkers, the order of the positions; unused ones are H or OH. Bridge positions count the residues as written; N and C are the ends. Ends that are not written are not given here. Phenylene(1,4-NHCOCH2)2 = O=C(C[*:1])Nc1ccc(NC(=O)C[*:2])cc1
attribute measured: interaction data at Target Concentration 10

sequence	recorded value
DPAIQNCRSAADVCMFF (linker 7-14 via Phenylene(1,4-NHCOCH2)2; not fully specified (C-terminus))	0
DPALWECRNAAWQCWMH (linker 7-14 via Phenylene(1,4-NHCOCH2)2; not fully specified (C-terminus))	0
DPAANYCEAAADTCQFF (linker 7-14 via Phenylene(1,4-NHCOCH2)2 (inferred))	0
DPALIHCRAAADTCAFW (linker 7-14 via Phenylene(1,4-NHCOCH2)2; not fully specified (C-terminus))	87
DPALLHCMAAAQTCSFF (linker 7-14 via Phenylene(1,4-NHCOCH2)2; not fully specified (C-terminus))	0
DPAIHSCYAAAETCQFF (linker 7-14 via Phenylene(1,4-NHCOCH2)2 (inferred))	43
DPATWDCNVAAHRCWFL (linker 7-14 via Phenylene(1,4-NHCOCH2)2 (inferred); not fully specified (C-terminus))	1
DPARVNCHAAADTCFFF (linker 7-14 via Phenylene(1,4-NHCOCH2)2)	6
DPATWACINAAHNCWRN (DPATWACINAAHNCWRN-NH2; linker 7-14 via Phenylene(1,4-NHCOCH2)2 (inferred))	0
DPATWDCQQAAHHCWVL (linker 7-14 via Phenylene(1,4-NHCOCH2)2 (inferred); not fully specified (C-terminus))	0
DPATWDCRNAAWLCLLN (linker 7-14 via Phenylene(1,4-NHCOCH2)2 (inferred); not fully specified (C-terminus))	0
DPAVWDCRYAAWDCYTN (linker 7-14 via Phenylene(1,4-NHCOCH2)2 (inferred); not fully specified (C-terminus))	0
DPAAWDCRYAALACYIH (linker 7-14 via Phenylene(1,4-NHCOCH2)2 (inferred))	0
DPAIWDCLYAATNCYIN (linker 7-14 via Phenylene(1,4-NHCOCH2)2; not fully specified (C-terminus))	0
DPATYYCEAAAETCRFF (linker 7-14 via Phenylene(1,4-NHCOCH2)2 (inferred); not fully specified (C-terminus))	37
DPALWHCLAAAETCAMF (linker 7-14 via Phenylene(1,4-NHCOCH2)2; not fully specified (C-terminus))	4
DPAYHHCLAAADLCSFF	59
DPAVWECRWAAFQCWLD (linker 7-14 via Phenylene(1,4-NHCOCH2)2 (inferred); not fully specified (C-terminus))	0
DPATWDCIWAAERCWRY (linker 7-14 via Phenylene(1,4-NHCOCH2)2 (inferred); not fully specified (C-terminus))	0
DPALWECMTAADWCMFM (linker 7-14 via Phenylene(1,4-NHCOCH2)2; not fully specified (C-terminus))	1
